target: full length human TREX1 (Homo sapiens); construct: N-terminally His-Tev tagged full length human TREX1; assay: TREX1 Biochemical Assay (fluorescence, dsDNA substrate degradation); conditions: 150 pM TREX1, 60 nM dsDNA substrate, 25 minutes at room temperature
Sequence (Q9NSU2 whole entry): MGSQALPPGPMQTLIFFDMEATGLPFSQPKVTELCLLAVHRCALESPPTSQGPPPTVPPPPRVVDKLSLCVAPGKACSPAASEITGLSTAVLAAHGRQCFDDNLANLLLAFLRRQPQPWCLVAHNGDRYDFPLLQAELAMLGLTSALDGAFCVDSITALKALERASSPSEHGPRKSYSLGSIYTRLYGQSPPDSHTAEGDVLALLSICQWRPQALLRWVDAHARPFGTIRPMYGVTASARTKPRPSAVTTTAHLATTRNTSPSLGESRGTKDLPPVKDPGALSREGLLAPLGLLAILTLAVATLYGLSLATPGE
pIC50: −log10 of the molar value.
Reported values of pIC50 for individual entries

Check out these entries, answers already filled in.
- Line notation: "Cc1nocc1NC(=O)c1nc(N(C)C(c2ccccc2)c2ccccc2)n(C)c(=O)c1O"
  Study system: "full length human TREX1 (Homo sapiens)"
  Val: "> 7.00"
- Line notation: "CN(c1nc(C(=O)NC2CC(F)(F)C2)c(O)c(=O)n1C)C(c1ccccc1)c1ccccc1"
  Study system: "full length human TREX1 (Homo sapiens)"
  Val: "5.00 to 6.00"
- Line notation: "CN(c1nc(C(=O)N[C@H]2CCOC2)c(O)c(=O)n1C)C(c1ccccc1)c1ccccc1"
  Study system: "full length human TREX1 (Homo sapiens)"
  Val: "< 5.00"

# next molecule below
Could you share which pIC50 value was measured for "CN(c1nc(C(=O)NC2CC=CC2)c(O)c(=O)n1C)C(c1ccccc1)c1ccccc1" ?
5.00 to 6.00

Data origin: patent US20230167070A1
